Recorded conditions: in acetone, 293.15 K

- Item smiles: "O=Cc1ccc2c(c1)OCO2"
  solubility (mole fraction): 0.155

====

Recorded conditions: in water, 293.15 K

- Item smiles: "O=Cc1ccc2c(c1)OCO2"
  solubility (mole fraction): 0.000393

====

Recorded conditions: in water, 273.15 K

- Item smiles: "O=Cc1ccc2c(c1)OCO2"
  solubility (mole fraction): 0.000118

====

Recorded conditions: in water, 288.15 K

- Item smiles: "O=Cc1ccc2c(c1)OCO2"
  solubility (mole fraction): 0.000277

====

Recorded conditions: in acetone, 273.15 K

- Item smiles: "O=Cc1ccc2c(c1)OCO2"
  solubility (mole fraction): 0.0521

====

Recorded conditions: in ethanol, 288.15 K

- Item smiles: "O=Cc1ccc2c(c1)OCO2"
  solubility (mole fraction): 0.0697

====

Recorded conditions: in ethanol, 278.15 K

- Item smiles: "O=Cc1ccc2c(c1)OCO2"
  solubility (mole fraction): 0.0143

====

Recorded conditions: in acetone, 283.15 K
Outcome measure: solubility (mole fraction)

- Item smiles: "O=Cc1ccc2c(c1)OCO2"
  Test value: 0.0876

====

Recorded conditions: in isopropanol, 283.15 K

- Item smiles: "O=Cc1ccc2c(c1)OCO2"
  solubility (mole fraction): 0.0332

====

Recorded conditions: in water, 278.15 K

- Item smiles: "O=Cc1ccc2c(c1)OCO2"
  solubility (mole fraction): 0.000153

====

Recorded conditions: in isopropanol, 293.15 K
Outcome measure: solubility (mole fraction)

- Item smiles: "O=Cc1ccc2c(c1)OCO2"
  Test value: 0.0753

====

Recorded conditions: in isopropanol, 278.15 K

- Item smiles: "O=Cc1ccc2c(c1)OCO2"
  solubility (mole fraction): 0.0227

====

Recorded conditions: in acetone, 288.15 K
Outcome measure: solubility (mole fraction)

- Item smiles: "O=Cc1ccc2c(c1)OCO2"
  Test value: 0.118

====

Recorded conditions: in ethanol, 283.15 K

- Item smiles: "O=Cc1ccc2c(c1)OCO2"
  solubility (mole fraction): 0.0396

====

Recorded conditions: in chloroform, 278.15 K
Outcome measure: solubility (mole fraction)

- Item smiles: "O=Cc1ccc2c(c1)OCO2"
  Outcome measure: "solubility (mole fraction)"
  Test value: 0.477
